The measurements presented in this section are drawn from paper PMC8809517.

- experimental_system: T1, GFP-9S library array, motif 4 ND N98A;D124Q (synthetic construct, N98A;D124Q)
- T1 chain: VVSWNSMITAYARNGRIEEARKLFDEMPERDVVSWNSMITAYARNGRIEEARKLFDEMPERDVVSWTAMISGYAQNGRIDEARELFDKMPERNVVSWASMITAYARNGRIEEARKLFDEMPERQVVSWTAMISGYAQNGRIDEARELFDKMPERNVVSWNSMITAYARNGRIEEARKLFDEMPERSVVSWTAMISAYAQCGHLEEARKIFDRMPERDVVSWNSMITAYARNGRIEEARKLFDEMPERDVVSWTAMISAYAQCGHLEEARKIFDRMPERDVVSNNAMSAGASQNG
- assay_summary: high-throughput RNA pulldown from lysate on Ni-NTA beads; HRP: 50 mM Tris pH 8, 150 mM NaCl, 1 mM beta-mercaptoethanol, 50 ug/ml BSA, 3 ug/ml yeast RNA, 0.5% heparin; ITC and FP: Tris pH 8, 200 mM KCl, 5% glycerol; MST: 50 mM Tris pH 8, 200 mM NaCl, 1 mM DTT, BSA, heparin, 0.05% Tween 20
- test_settings: tags: N-terminal His-eGFP; label: 5' IRDye 800CW
Exercise: for every item that follows, state its recorded Kd.
Give just the numeric value; nM need not be written.

Recorded Kd of AUUAUACGUGA (ssRNA) [IR-rpoA-U] , please.
522

Recorded Kd of AUUAAACGUGA (ssRNA) [IR-rpoA-A] , please.
306
